SUBJECT OF TEST: Sphingosine 1-phosphate receptor 3 (Homo sapiens, UniProt Q99500)
Sequence (Q99500 whole entry): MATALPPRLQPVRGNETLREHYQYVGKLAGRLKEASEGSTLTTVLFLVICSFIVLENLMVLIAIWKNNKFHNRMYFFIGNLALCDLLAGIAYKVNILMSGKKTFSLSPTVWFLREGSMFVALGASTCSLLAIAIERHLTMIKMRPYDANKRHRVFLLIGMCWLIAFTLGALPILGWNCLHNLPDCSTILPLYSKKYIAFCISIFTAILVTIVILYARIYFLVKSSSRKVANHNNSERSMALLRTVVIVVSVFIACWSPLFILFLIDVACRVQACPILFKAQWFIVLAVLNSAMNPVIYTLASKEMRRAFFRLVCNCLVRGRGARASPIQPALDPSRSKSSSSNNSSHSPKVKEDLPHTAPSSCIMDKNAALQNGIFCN
METHOD SUMMARY: Agonist activity at human recombinant S1PR3 expressed in CHO cell membranes assessed as [35S]GTPgammaS binding preincubated for 30 mins followed by [35S]GTPgammaS addition measured after 1 hr by topcount analysis
pEC50: recorded values
A value of pEC50 is the negative decimal logarithm of a concentration given in moles per litre.

Below, 4 compounds whose answers are already recorded.
The measured pEC50 associated with `CCc1cc(-c2nc(-c3cc(C)c(OC[C@@H](O)CNC(=O)CO)c(CC)c3)no2)ccc1CN(C)C` reads 6.32

The measured pEC50 associated with `CCc1cc(-c2noc(-c3ccc(CN(C)CC)c(C)c3)n2)cc(C)c1OC[C@@H](O)CNC(=O)CO` reads 6.04

The measured pEC50 associated with `CCc1cc(-c2noc(-c3ccc(CN(CC)CC)c(C)c3)n2)cc(C)c1OC[C@@H](O)CNC(=O)CO` reads 6.25

The measured pEC50 associated with `CCc1cc(-c2noc(-c3sc(CN(C)CC(C)C)c(C)c3C)n2)cc(C)c1OC[C@@H](O)CNC(=O)CO` reads 5.64

---
The measured pEC50 associated with `CCc1cc(CN(C)CC(C)C)cc(-c2nc(-c3cc(C)c(OC[C@@H](O)CNC(=O)CO)c(CC)c3)no2)c1` reads 8.10

###

METHOD SUMMARY: Total plasma concentration in Wistar rat at 10 mg/kg administered as single dose through oral gavage after 24 hrs by LC-MS/MS analysis
Type: ADME, organism-based
ASSAY METRIC: concentration at 24 h (ng/mL)
// return numeric value only (unit: ng/mL, not printed)

The measured concentration at 24 h associated with `CCc1cc(-c2noc(-c3cc(C)c(CN(C)CC(C)C)s3)n2)cc(C)c1OC[C@@H](O)CNC(=O)CO` reads 66.5

###

SUBJECT OF TEST: Sphingosine 1-phosphate receptor 3 (Homo sapiens)
METHOD SUMMARY: Agonist activity at human recombinant S1PR3 expressed in CHO cell membranes assessed as [35S]GTPgammaS binding preincubated for 30 mins followed by [35S]GTPgammaS addition measured after 1 hr by topcount analysis
pEC50: recorded values
A value of pEC50 is the negative decimal logarithm of a concentration given in moles per litre.

Below, 2 compounds whose answers are already recorded.
The measured pEC50 associated with `CCc1cc(-c2noc(-c3cc(C)c(CN(C)CC(C)C)s3)n2)cc(C)c1OC[C@@H](O)CNC(=O)CO` reads 6.84

The measured pEC50 associated with `CCc1cc(-c2noc(-c3cc(C)c(CN(C)C)c(C)c3)n2)cc(C)c1OC[C@@H](O)CNC(=O)CO` reads 5.26

---
The measured pEC50 associated with `CCc1cc(-c2nc(-c3cc(C)c(OC[C@@H](O)CNC(=O)CO)c(CC)c3)no2)sc1CN(C)C` reads 7.35

The measured pEC50 associated with `CCc1cc(-c2noc(-c3cc(C)cc(CN(C)CC(C)C)c3)n2)cc(C)c1OC[C@@H](O)CNC(=O)CO` reads 7.00

The measured pEC50 associated with `CCc1cc(-c2noc(-c3cc(C)cc(CN(C)C)c3)n2)cc(C)c1OC[C@@H](O)CNC(=O)CO` reads 5.70

The measured pEC50 associated with `CCCN(C)Cc1sc(-c2nc(-c3cc(C)c(OC[C@@H](O)CNC(=O)CO)c(CC)c3)no2)c(C)c1C` reads 6.43

The measured pEC50 associated with `CCCCN(C)Cc1sc(-c2nc(-c3cc(C)c(OC[C@@H](O)CNC(=O)CO)c(CC)c3)no2)cc1C` reads 6.92

The measured pEC50 associated with `CCc1cc(-c2noc(-c3cc(C)c(CN(C)C)s3)n2)cc(C)c1OC[C@@H](O)CNC(=O)CO` reads 6.18

The measured pEC50 associated with `CCc1cc(-c2noc(-c3cc(C)cc(CNCC(C)C)c3)n2)cc(C)c1OC[C@@H](O)CNC(=O)CO` reads 5.68

###

METHOD SUMMARY: Plasma concentration in Wistar rat at 3 mg/kg administered as single dose through oral gavage after 6 hrs by LC-MS/MS analysis
Assay type: ADME, organism-based
ASSAY METRIC: concentration at 6 h (ng/mL)
// return numeric value only (unit: ng/mL, not printed)

The measured concentration at 6 h associated with `CCc1cc(-c2noc(-c3cc(C)c(CN(C)CC(C)C)s3)n2)cc(C)c1OC[C@@H](O)CNC(=O)CO` reads 170

###

METHOD SUMMARY: Plasma concentration in Wistar rat at 10 mg/kg administered as single dose through oral gavage after 72 hrs by LC-MS/MS analysis
Type: ADME, organism-based
ASSAY METRIC: concentration at 72 h (ng/mL)
// return numeric value only (unit: ng/mL, not printed)

The measured concentration at 72 h associated with `CCc1cc(-c2noc(-c3cc(C)cc(CN(C)CC(C)C)c3)n2)cc(C)c1OC[C@@H](O)CNC(=O)CO` reads 3.7

###

SUBJECT OF TEST: Sphingosine 1-phosphate receptor 3 (Homo sapiens)
METHOD SUMMARY: Agonist activity at human recombinant S1PR3 expressed in CHO cell membranes assessed as [35S]GTPgammaS binding preincubated for 30 mins followed by [35S]GTPgammaS addition measured after 1 hr by topcount analysis
Format: functional
ASSAY METRIC: EC50 (nM)
// return numeric value only (unit: nM, not printed)

Below, 3 compounds whose answers are already recorded.
The measured EC50 associated with `CCCN(C)Cc1sc(-c2nc(-c3cc(C)c(OC[C@@H](O)CNC(=O)CO)c(CC)c3)no2)cc1C` reads 120

The measured EC50 associated with `CCc1cc(-c2noc(-c3cc(C)c(CN(C)CCO)s3)n2)cc(C)c1OC[C@@H](O)CNC(=O)CO` reads 1700

The measured EC50 associated with `CCCN(C)Cc1sc(-c2nc(-c3cc(C)c(OC[C@@H](O)CNC(=O)CO)c(CC)c3)no2)cc1CC` reads 20

Let us move to another entry and its EC50.
The measured EC50 associated with `CCc1cc(-c2noc(-c3cc(C)c(CN(C)CC)s3)n2)cc(C)c1OC[C@@H](O)CNC(=O)CO` reads 150

###

SUBJECT OF TEST: Sphingosine 1-phosphate receptor 1 (Homo sapiens)
Sequence (P21453 whole entry): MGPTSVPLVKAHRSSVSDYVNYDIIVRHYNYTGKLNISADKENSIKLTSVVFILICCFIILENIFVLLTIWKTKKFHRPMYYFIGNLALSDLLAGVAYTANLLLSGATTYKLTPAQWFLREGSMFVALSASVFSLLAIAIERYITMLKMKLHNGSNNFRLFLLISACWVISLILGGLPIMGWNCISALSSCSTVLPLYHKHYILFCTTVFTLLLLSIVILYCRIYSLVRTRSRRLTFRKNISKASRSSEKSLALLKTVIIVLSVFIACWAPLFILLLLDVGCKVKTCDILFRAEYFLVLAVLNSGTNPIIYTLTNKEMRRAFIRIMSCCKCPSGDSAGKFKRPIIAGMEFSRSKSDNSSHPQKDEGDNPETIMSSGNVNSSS
METHOD SUMMARY: Agonist activity at human recombinant S1PR1 expressed in CHO cell membranes assessed as [35S]GTPgammaS binding preincubated for 30 mins followed by [35S]GTPgammaS addition measured after 1 hr by topcount analysis
ASSAY METRIC: pEC50
A value of pEC50 is the negative decimal logarithm of a concentration given in moles per litre.

The molecule `CCCNCc1cccc(-c2nc(-c3cc(C)c(OC[C@@H](O)CNC(=O)CO)c(CC)c3)no2)c1` , tested on Sphingosine 1-phosphate receptor 1 (Homo sapiens), showed pEC50 of 6.52

###

METHOD SUMMARY: Apparent intrinsic clearance in Wistar rat liver microsomes at 1 uM after 2.5 to 15 mins by LC-MS/MS analysis in presence of NADPH
Assay type: ADME
CONDITION NOTES: read-out: CLH(app)
Mark 0.0 for microsomal CLint at 1 µM values under 70 µL/min/mg, and 1.0 for everything at or above.

Past entries and their recorded results:
[Q] Answer whether microsomal CLint at 1 µM of `CCCCN(C)Cc1cc(C)cc(-c2nc(-c3cc(C)c(OC[C@@H](O)CNC(=O)CO)c(CC)c3)no2)c1` is greater than or equal to 70 µL/min/mg.
[A] 1.0

[Q] Answer whether microsomal CLint at 1 µM of `CCc1cc(-c2noc(-c3cc(C)cc(CN(C)CC)c3)n2)cc(C)c1OC[C@@H](O)CNC(=O)CO` is greater than or equal to 70 µL/min/mg.
[A] 1.0

[Q] Answer whether microsomal CLint at 1 µM of `CCc1cc(-c2noc(-c3cc(C)c(CN(C)C)s3)n2)cc(C)c1OC[C@@H](O)CNC(=O)CO` is greater than or equal to 70 µL/min/mg.
[A] 1.0

[Q] Answer whether microsomal CLint at 1 µM of `CCc1cc(-c2noc(-c3cc(C)c(CN(C)CC(C)C)s3)n2)cc(C)c1OC[C@@H](O)CNC(=O)CO` is greater than or equal to 70 µL/min/mg.
[A] 0.0

[Q] Answer whether microsomal CLint at 1 µM of `CCc1cc(-c2noc(-c3cc(C)cc(CN(C)C)c3)n2)cc(C)c1OC[C@@H](O)CNC(=O)CO` is greater than or equal to 70 µL/min/mg.
[A] 1.0

---
[Q] Answer whether microsomal CLint at 1 µM of `CCc1cc(-c2noc(-c3cc(C)cc(CN(C)CC(C)C)c3)n2)cc(C)c1OC[C@@H](O)CNC(=O)CO` is greater than or equal to 70 µL/min/mg.
[A] 0.0

[Q] Answer whether microsomal CLint at 1 µM of `CCc1cc(-c2nc(-c3cc(C)c(OC[C@@H](O)CNC(=O)CO)c(CC)c3)no2)ccc1CN(C)C` is greater than or equal to 70 µL/min/mg.
[A] 1.0

[Q] Answer whether microsomal CLint at 1 µM of `CCc1cc(-c2noc(-c3cc(C)nc(CN(C)CC(C)C)c3)n2)cc(C)c1OC[C@@H](O)CNC(=O)CO` is greater than or equal to 70 µL/min/mg.
[A] 1.0

[Q] Answer whether microsomal CLint at 1 µM of `CCc1cc(-c2noc(-c3ccc(CN(C)CC(C)C)c(C)c3)n2)cc(C)c1OC[C@@H](O)CNC(=O)CO` is greater than or equal to 70 µL/min/mg.
[A] 1.0
